The measurements presented in this section are drawn from PubChem BioAssay AID465.

experiment: inhibitors of PMA/ionomycin-induced NF-kB reporter, primary screen, antigen receptor NF-kB inhibitor project, cell-based, HEK-293 luciferase reporter, luminescence (AID 465); settings: HEK-293 NF-kB luciferase reporter, at 3 µM, active compounds read high;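 further: 0% = stimulated DMSO wells and 100% = 10 µM reference inhibitor 5653914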
In all, about 62,000 compounds went through this assay and about 130 (0.21%) were called active. The list comes from a sample in which actives are over-represented; it also holds close analogues and randomly drawn compounds.
Each entry below carries its recorded inhibition.
Express the result in % but write the number alone.

Use these answered entries as a reference point.
1) Cc1ccc(NC(=O)CCNS(=O)(=O)c2ccc3c(c2)oc(=O)n3C)cc1C
13.6
2) O=C(Cc1c(F)cccc1Cl)N1CCN(C(=O)c2ccco2)CC1
10.7
3) CCCC(NC(=O)c1ccccc1)c1nc2ccccc2n1Cc1ccc(C(=O)OC)o1 (stereo unspecified)
17.4
4) COc1ccc(-c2nnn(Cc3nc(N)nc(N4CCCCC4)n3)n2)cc1
10.9

Enquiry: // returns reported inhibition for input O=C(O)C1CCCN1S(=O)(=O)c1ccc2c(c1)CCC2 (stereo unspecified)
Return: 15.4

Enquiry: Given the entry `CCOC(=O)CNC(=O)c1nn(-c2cccc(OC)c2)c(=O)c2ccccc12` , report its measured inhibition.
Return: 5.1

Enquiry: For NC(=O)C1CC=CCC1C(=O)OCC(Cl)=C(Cl)Cl (stereo unspecified) , what is its reported inhibition?
Return: 0.1

Enquiry: Which inhibition reading was recorded for the molecule `O=C(NCCN=C1NS(=O)(=O)c2ccccc21)c1ccc(S(=O)(=O)N2CCOCC2)cc1` ?
Return: 11.1

Enquiry: What value of inhibition has been recorded for this entry: `O=P(c1cccs1)(c1cccs1)c1cccs1`
Return: 22.9

Enquiry: Can you share its inhibition? I mean this molecule: `CCOC(=O)N1CCN(C(=O)c2nn(-c3ccc(C)cc3)c(=O)c3c2c2ccccc2n3C)CC1`
Return: 20.4

Enquiry: State the recorded inhibition for this entry: `O=C(CSC1=NCCS1)Nc1nc(-c2ccccc2)cs1`
Return: -2.2
